# assay text: Solvent solubility screen
# Type: physicochemical
# assay setup: anisole, 40 °C, organic solvent or mixture, thermodynamic from solid; read-out: Approximate Solubility
value type: solubility

Task item: Indicate its recorded solubility; the molecule in question is COC(=O)c1ccc2c(c1)NC(=O)/C2=C(\Nc1ccc(N(C)C(=O)CN2CCN(C)CC2)cc1)c1ccccc1 [Nintedanib]
Reply: < 10000 µg/mL

---

# assay text: Plasma and lung pharmacokinetics of nintedanib esylate, oral vs intratracheal aerosol
# Assay type: in vivo, C57BL/6 mice
# assay setup: female, C57BL/6, mouse, inhaled or intranasal; 2.5 mg/kg IT; Plasma; read-out: Elimination half-life (alpha-phase)
value type: half-life (min)
Answers are plain numbers, in min.

Task item: Quickly give me recorded half-life for COC(=O)c1ccc2c(c1)NC(=O)/C2=C(\Nc1ccc(N(C)C(=O)CN2CCN(C)CC2)cc1)c1ccccc1 [Nintedanib esylate]
Reply: 2.3

---

# assay text: Solvent solubility screen
# Type: physicochemical
# assay setup: 50% 2-propanol: 50% water (% v/v), 40 °C, aqueous with cosolvent or surfactant or cyclodextrin, thermodynamic from solid; read-out: Approximate Solubility
value type: solubility

Task item: Note solubility for the molecule shown: `COC(=O)c1ccc2c(c1)NC(=O)/C2=C(\Nc1ccc(N(C)C(=O)CN2CCN(C)CC2)cc1)c1ccccc1`
Reply: < 10000 µg/mL

---

# assay text: Plasma and lung pharmacokinetics of nintedanib esylate, oral vs intratracheal aerosol
# Assay type: in vivo, C57BL/6 mice
# assay setup: female, C57BL/6, mouse, inhaled or intranasal; 10.0 mg/kg IT; Lung (whole lung homogenate)
value type: Cmax (ng/g)
One number for each entry, in ng/g.

Task item: Provide only the value of recorded Cmax for COC(=O)c1ccc2c(c1)NC(=O)/C2=C(\Nc1ccc(N(C)C(=O)CN2CCN(C)CC2)cc1)c1ccccc1 [Nintedanib esylate]
Reply: 250000

---

# assay text: Solvent solubility screen
# Assay type: physicochemical
# assay setup: ethanol, 40 °C, organic solvent or mixture, thermodynamic from solid; read-out: Approximate Solubility
value type: solubility

Task item: Give recorded solubility. COC(=O)c1ccc2c(c1)NC(=O)/C2=C(\Nc1ccc(N(C)C(=O)CN2CCN(C)CC2)cc1)c1ccccc1 [Nintedanib]
Reply: < 10000 µg/mL

---

# assay text: Plasma and lung pharmacokinetics of nintedanib esylate, oral vs intratracheal aerosol
# Format: in vivo, C57BL/6 mice
# assay setup: female, C57BL/6, mouse; 100.0 mg/kg PO; Plasma
value type: AUC(0-t)
Express the reported value numerically, then name its unit.

Task item: Quickly give me recorded AUC(0-t) for COC(=O)c1ccc2c(c1)NC(=O)/C2=C(\Nc1ccc(N(C)C(=O)CN2CCN(C)CC2)cc1)c1ccccc1 [Nintedanib esylate]
Reply: 1800 ng·h/mL

---

# assay text: Aqueous solubility assessment of salts
# Assay type: physicochemical
# assay setup: water, thermodynamic from solid; primary screen samples; read-out: Solubility (aqueous)
value type: solubility

Task item: Using known records, supply solubility for `COC(=O)c1ccc2c(c1)NC(=O)/C2=C(\Nc1ccc(N(C)C(=O)CN2CCN(C)CC2)cc1)c1ccccc1`
Reply: ~5000 µg/mL

---

# assay text: Apparent solubility of nintedanib HBr laboratory scale batches
# Assay type: physicochemical
Give Apparent Solubility for every item shown.
Numbers only, in µg/mL.

Reference set (5 entries):
{"compound": "Br.COC(=O)c1ccc2c(c1)NC(=O)C2=C(Nc1ccc(N(C)C(=O)CN2CCN(C)CC2)cc1)c1ccccc1 [AP178d]", "Apparent Solubility [µg/mL]": 1940}
{"compound": "Br.COC(=O)c1ccc2c(c1)NC(=O)C2=C(Nc1ccc(N(C)C(=O)CN2CCN(C)CC2)cc1)c1ccccc1 [AP064]", "Apparent Solubility [µg/mL]": 1960}
{"compound": "Br.COC(=O)c1ccc2c(c1)NC(=O)C2=C(Nc1ccc(N(C)C(=O)CN2CCN(C)CC2)cc1)c1ccccc1 [AP152]", "Apparent Solubility [µg/mL]": 1950}
{"compound": "Br.COC(=O)c1ccc2c(c1)NC(=O)C2=C(Nc1ccc(N(C)C(=O)CN2CCN(C)CC2)cc1)c1ccccc1 [AP177w]", "Apparent Solubility [µg/mL]": 1030}
{"compound": "Br.COC(=O)c1ccc2c(c1)NC(=O)C2=C(Nc1ccc(N(C)C(=O)CN2CCN(C)CC2)cc1)c1ccccc1 [AP178w]", "Apparent Solubility [µg/mL]": 1010}

For each of the compounds below, note its Apparent Solubility.
1. Br.COC(=O)c1ccc2c(c1)NC(=O)/C2=C(\Nc1ccc(N(C)C(=O)CN2CCN(C)CC2)cc1)c1ccccc1
2. Br.COC(=O)c1ccc2c(c1)NC(=O)C2=C(Nc1ccc(N(C)C(=O)CN2CCN(C)CC2)cc1)c1ccccc1 [AP069]

Reply:
1: 960; 2: 1020
